Assay: yeast display, Sf9 membrane polyspecificity reagent, FACS + sequencing; frameworks hold sequencing errors
Observable: polyreactivity (PSR sort gate)

Chain sequence | Observable | Result
QVQLVESAGGLVQAGASLRLSCAASGIIFTRYAMGWYRQPPGKESELVAAITRSSGSTYYADSVKGRFTISRDNAKNTVYLQMNSLKPEDSAVYYCAADWVSRYQARPYFSAFNYWGQGTQVTVSS | polyreactivity (PSR sort gate) | high polyreactivity
QVQLVESGGGLVQAGGSLRLSCAASGFTFSVYAMGWYRQAPGKERELVAVITKRGGSTYYADSVKGRFTISRDNAKNTVYLQMNSLKPEDTAVYYCNAYLQGKIFPYGYWGQGTQVTVSS | polyreactivity (PSR sort gate) | high polyreactivity

###

Assay: yeast display, Sf9 membrane polyspecificity reagent, FACS + sequencing; frameworks hold sequencing errors

Chain sequence | polyreactivity (PSR sort gate)
QVQLVESGGGLVQAGGSLRLSCAASGSTFVSYAMGWYRQAPGKERELVAGITRRGGTTYYADSVKGRFTISRDNAKNTVYLQMNSLKPEDTAVYYCARYSLYTGYRRYPLDYDYWGQGTQVTVSS | high polyreactivity
QVQLVESGGGLVQAGGSLRLSCAASGIIFRGYFMGWYRQATGKERELVAAISTSGGRTSYADSVKGRFTISRDNAKNTVYLQMNSLKPEDTAVYYCAARPLYSYSHWGYGYWGQGTQVTVSS | high polyreactivity
QVQLVESGVGLVQAGGSLRLSCAASGITFSYYAMGWYRQAPGKERELVAAISGSGTSTYYADSVKGRFTISRDNAKNTVYLQMNSLKPEDTAVYYCAAGPPRKPGYYYWGQGTQVTVSS | high polyreactivity

###

Assay: yeast display, Sf9 membrane polyspecificity reagent, FACS + sequencing; frameworks hold sequencing errors
Observable: polyreactivity (PSR sort gate)

Chain sequence | Result
QVQLVESGGGLVQAGGSLRLSFAASGSNFYIYAMGWYRQAPGKERELVAAITSGGNTYYVDSVKGRFTISRDNAKNTVYFQMNSLKPEDTAVYYCAAELYDRWSRMDYWGQGTQVTVSS | low polyreactivity
QVQHVESGGGLVQSGGSLRLSCAASGRNFKFNPMGWYRQPPGKERELVAGITWTGSTTSYADSVKGRFTISRDNATNPVYLQMNSLKPEDTEVYYCDGDKIGFWYHGFYYRGQGTQVTVSS | low polyreactivity
QVQLVESGGGLVQAGGSLRLSCAASGSTFEYYVMGWYRQAPGKERELVAAISGSGGGTYYADSVKGRFTISRDNEKNTVYLQMNSLKPEDTAVYYCAAVATQEKYDYWGQGTQVTVSS | low polyreactivity
QVQLVESGGGLVQAGGSLRLSSAASGSIFYYYSMGWYRQAPGKERELVAAITRSGGSTYYADSVKGLFTISRDNAKNTVYLQMNSQKPEDTAVYYCAKDAHAYRDLDYWGQGTQVTVSS | low polyreactivity
QVQLVESGGGLVQAGGSLRLSCAASGRTFPPYAMGWYRQAPGKERELVAAISSDGSTYADSVKGRFTISRDNAKNTVYLQMNSLKPEDTAVYYCAVDYTYSYRKHFGHILYSWGQGTQVTVSS | low polyreactivity
QVQLVESGGGLVQAGGSLRLSCAASGLIFNVNAMGWYRQAPRKERELVAAITGGGGSTYYADSVKGRFTISRDNAKNTVYLQMNSLKPEDTAVYYCAATTGLYTRYGDWGQVTQVTVSS | high polyreactivity
QVQVVESGGGLVQAGGCLRLSCAASGVIFVGYAMGWYRQAPGKERELVAAISWSGGSTYYADSVKGRFTISRDKAKNTVYLQMNSLKPEDTAVYYCAAYLYGYEYWGQGTQVTVSS | high polyreactivity
QVQLVESGGGLVKAGGSLRLSCAASGSTSQVNDMGWYRQAPGTERELVGAISSTGDRTYYADSVKGRFTISRDNAKNNVYLQMNSLKPDDTAVYYCANDPFPFPCGDYWGQGTQVTVSS | low polyreactivity
QVQLVESGGGLVQAGGSLRLSCAASGRTFSLYAMGRYRQAPGKERELVAGISSSGGSTYYADSVKGRFTISRDNAKNTVYLQMNSLKQEDTAFYYCAAYRNTVIRNSDYWGQGTQVTVSS | high polyreactivity
QVQLVESGGGLVQAGVSLRLSCAASGFIFPYYAMGWYRQAPGKERELVAAITRGGRTYYADSVKGRFTISRDNAKNTVYLQMNSLKPEDTAVYYCAARSVGKRGYDYWGLGTQVTVSS | high polyreactivity

Exercise: Look up polyreactivity (PSR sort gate) for this sequence: "QVQLVESGGGLVQAGGSLRLSCAASGRTLSGYVMGWYRQAPGKERELDAAIDWSGGTTYYADSVKGRFTISRDTAKNTVYVQMNSLKPEDTAVYYCAAEVLSWLYWPYYYWGQGSQVTVSS"
Key: high polyreactivity
